EXPERIMENT_DESCRIPTION: NIC and metabolites in rat brain after s.c. injection of radiolabelled NIC
Type: in vivo
SETTINGS: in vivo; rat brain; read-out: time of maximum uptake in brain

{"COMPOUND": "CN1CCC[C@H]1c1cccnc1 [S(-) nicotine]", "Tmax": "30 to 60 min"}
